Some proteins, each annotated with its measured Enzyme Activity Endpoint Assay (purified): scIgG.
Target: pooled human IgG
Return type: number; implicit unit ng/µL.

PRT-56 (protein) MANQEIRYSEVTPYHVTSVWTKGVTPPANFTQGEDVFHAPYVANQGWYDINKTFNGKDDLLCGAATAGNMLHWWFDQNKEYIDRYLEEHPEKQKINFNGEQMFDVKEAIDTKNHQLDSKLFEYFKEKAFPYLSTKHLGVFPDLVLDMFINGYRLSLTNHGPTPVKEGSKDPRGGFFDAVFTRGDQSKLLTSRHDFKEKNLKEISDLIKKELTEGKALGLSHTYANVRINHVINLWGADFDSNGNLKAIYVTDSDSNASVGMKKYFVGVNSAGKVAISAKEIKEDNIGAQVLGLFTLSTGQDSWNQTN; 3
PRT-164 (protein) MANQEIRYSEVTPYHVTSVWTKGVTPPANFTQGEDVFHAPYVANQGWYDITKTFNGKDDLLCGAATAGNMLHWWFDQNKDQIKRYLEEHPEKQKINFNGEQMFDVKEAIDTKNSQENSELFNYFKEKAFPYLSTKHLGVFPDHVIDMFINGYRLSLTNHGPTPVKEGSKDPRGGIFDAVFTRGDQSKLLTSRHDFKEKNLKEISDLIKKELTEGKALGLSHTYANVRINHVINLWGADFDSNGNLKAIYVTDSDSNASIGMKKYFVGVNSAGKVAISAKEIKEDNIGAQVLGLFTLSTGQDSWNQTN; 85
PRT-118 (protein) MRNATEAYNKETPKTITSVWTKGVTPPTPEQFTKQNEDVFHAPYVANQGWYDITKTFNGKDNLLCGAATAGNMLHWWFDQNKTEIENYLKKHPEKQKIIFNNQELFDLKAAIDTKDSQTNSALFNYFRDKAFPNLSARQLGVMPDHVLDMFINGYYLNVNKTQSTDVNRPYDDKDKRGGIFDAVFTRGDQTTLLTARHDLKNKGLNEISTLIKQELTEGRALALSHTYANVSISHVINLWGADFNAEGNLEAIYVTDSDANASIGMKKYFVGKNASGKVAISAKKIEGDNIGAQVLGLFTLSSGKDIWQKLS; 153
PRT-668 (protein) MQITSVWTKGVTPLTPEQFRYNNYDVFHAPYLAGQGWYDITKAFDGKDNLLCGAATAGNMLHWWFDQNKTEIEAYLSKYPEKQKIIFNNQELFDLRKAINTKDSQTNSELFNYFRDKAFPNLSARQLGVMPDLVLDMFINGYYLNVFKTQSTDVNRPYQDKDKRGGIFDAVFNRGDQTKLLTARHDLKNKGLNDISTLIKQELSSGRALALSHTTANVSISHVINLWGADFNAEGNLEAIYVTDSDDDSNIGMKKYKVGINASGHVAISAKKIEGENIGAQVLGLFTLSSGKDIWQKLSLEHHHHHH; 14

Query: Read off the recorded Enzyme Activity Endpoint Assay (purified): scIgG for PRT-74 (protein) MANQEIRYSEVTPSHVTSVWTKGVTPPANFTQGEDVFHAPYVANQGWYDITKTFNGKDNLLCGAATAGNMLHWWFDQNKEEIEAYLKKHPEKQKIMFGDQELLDVRKVINTKDSQTNSELFNYFRDKAFPGLSARRLGVMPDLVLDMFINGYYLNVYKTQTTDVNRTYQEKDRRGGIFDAVFTRGDQSKLLTSRHDFKEKTLKEISDLIKKELTEGKALGLSHTYANVRINHVINLWGADFDSNGNLKAIYVTDSDSNASIGMKKYFVGVNSAGKVAISAKEIKEDNIGAQVLGLFTLSTGQDIWNQTN
Result: 27

Query: Assign Enzyme Activity Endpoint Assay (purified): scIgG to the following record: PRT-163 (protein) MANQEIRYSEVTPYHVTSVWTKGVTPPANFTQGEDVFHAPYVANQGWYDITKTFNGKDDLLCGAATAGNMLHWWFDQNKDQIKRYLEEHPEKQKINFNGEQMFDVKEAIDTKNDQTNSELFNYFKEKAFPYLSTKHLGVFPDHVIDMFINGYRLSLTNHGPTPVKEGSKDPRGGIFDAVFTRGDQSKLLTSRHDFKEKNLKEISDLIKKELTEGKALGLSHTYANVRINHVINLWGADFDSNGNLKAIYVTDSDSNASIGMKKYFVGVNSAGKVAISAKEIKEDNIGAQVLGLFTLSTGQDSWNQTN
Result: 0

Query: Give reported Enzyme Activity Endpoint Assay (purified): scIgG value for PRT-70 (protein) MANQEIRYSEVTPYHVTSVWTKGVTPPANFTQGEDVFHAPYVANQGWYDITKTFNGKDDLLCGAATAGNMLHWWFDQNKEQIKRYLEEHPEKQKINFNGEQMFDVKEAIDTKNHQLDSKLFEYFKEKAFPYLSTKHLGVFPDHVIDMFINGYRLSLTNHGPTPVKEGSKDPRGGIFDAVFTRGDQSKLLTSRHDFKEKNLKEISDLIKKELTEGKALGLSHTYANVRINHVINLWGADFDSNGNLKAIYVTDSDSNASIGMKKYFVGVNSAGKVAISAKEIKEDNIGAQVLGLFTLSTGQDSWNQTN
Result: 14

Query: Recall and state the measured Enzyme Activity Endpoint Assay (purified): scIgG for PRT-148 (protein) MANQEIRYSEVTPYHVTSVWTKGVTPPANFTQGEDVFHAPYVANQGWYDITKTFNGKDDLLCGAATAGNMLHWWFDQNKDQIKRYLEEHPEKQKINFNGEQMFDVKEAIDTKNHQLDSKLFEYFKEKAFPYLSTKHLGVFPDHVIDMFINGYRLSLTNHGPTPVKRQSKDPRGGIFDAVFTRGDQSKLLTSRHDFKEKNLKEISDLIKKELTEGKALGLSHTYANVRINHVINLWGADFDSNGNLKAIYVTDSDSNASIGMKKYFVGVNSAGKVAISAKEIKEDNIGAQVLGLFTLSTGQDSWNKTN .
Result: 0
